B1: POU domain, class 2, transcription factor 3, residues 186 to 260; numbered along this chain, Q9UKI9 (parent)
chain: SDLEELEKFAKTFKQRRIKLGFTQGDVGLAMGKLYGNDFSQTTISRFEALNLSFKNMCKLKPLLEKWLNDAESSP

- Variants of: B1
- TEST SUMMARY: abundance fitness (aPCA) (normalised: wild type 0, dead -1); higher = more abundant; growth selection in yeast, the domain comes from the species named
- DETAILS: Homo sapiens
Classify on abundance fitness using Low = under -0.2, Medium = from -0.2 up to -0.04, High = -0.04 and over

Q: Form: Item = N51Y ; Class = ?
Ans: Medium

Q: Form: Item = K66Y ; Class = ?
Ans: Medium

Q: Form: Item = L68V ; Class = ?
Ans: Medium

Q: Form: Item = L29Q ; Class = ?
Ans: High

Q: Form: Item = S45G ; Class = ?
Ans: High

Q: Form: Item = R46P ; Class = ?
Ans: Low

Q: Form: Item = L50N ; Class = ?
Ans: High

Q: Form: Item = C58S ; Class = ?
Ans: High

Q: Form: Item = F54G ; Class = ?
Ans: Medium

Q: Form: Item = I18Y ; Class = ?
Ans: Medium

Q: Form: Item = E5Y ; Class = ?
Ans: Low

Q: Form: Item = Q41L ; Class = ?
Ans: Medium

Q: Form: Item = N69A ; Class = ?
Ans: High

Q: Form: Item = L63Y ; Class = ?
Ans: Medium

Q: Form: Item = S53P ; Class = ?
Ans: High

Q: Form: Item = Q41M ; Class = ?
Ans: Medium

Q: Form: Item = S74M ; Class = ?
Ans: Medium

Q: Form: Item = K61P ; Class = ?
Ans: Low

Q: Form: Item = S53M ; Class = ?
Ans: Low
